read-out: Ezrin (EZR), EZR (gene 7430); assay: LTEA_HepaRG_EZR: Life Technologies and Expression Analysis (LTEA) Assay for Ezrin (EZR) using HepaRG (AID 2283491); conditions: mRNA level, 48 h; actives raise or lower the signal
Calls of active or inactive are those of the source. The calls were made as follows: active = hit-call score of the fitted dose curve at least 0.9, where 1 is the maximum; inactive = score below 0.9.
// one of t = active, f = inactive, no free text

Task: Assay result, entry OCC(CO)n1cnc(-c2ccc(F)cc2)c1-c1ccnc(Oc2ccccc2)n1 — outcome?
Output: f

Task: // outcome(item) with item = CC(C)NCC(O)c1ccc(O)c(O)c1 (stereo not given)
Output: t

Task: Entry CC(C)c1cccc(C(C)C)c1NC(=O)NS(=O)(=O)c1cc(C(C)(C)O)co1 : call = ?
Output: f

Task: What classification did CC(=O)OCC(COC(C)=O)OC(C)=O end up with in this test?
Output: f

Task: Which outcome did this test record for the molecule Cc1ccc(-c2cc(C(F)(F)F)nn2-c2ccc(S(N)(=O)=O)cc2)cc1 ?
Output: f

Task: What did the test return for CCCCCCCCCCCCCCOS(=O)(=O)O ?
Output: f

Task: Tell me the assay call for NC=O please.
Output: f

Task: Recorded test outcome, item Cc1occc(=O)c1O
Output: f

Task: Hey, what did the test say about CN(C)C(=O)NC1(c2ccccc2)CCN(CCC[C@]2(c3ccc(Cl)c(Cl)c3)CCCN(C(=O)c3ccccc3)C2)CC1 ?
Output: t

Task: Which outcome was entered for the molecule O=C(O)c1[nH]n(-c2ccc(S(=O)(=O)O)cc2)c(=O)c1N=Nc1ccc(S(=O)(=O)O)cc1 in this test?
Output: f

Task: Kindly provide the recorded test outcome for the following molecule: OCC(O)CO
Output: f

Task: How did this test come out for C#CC(O)C(CC)CCCC (stereo not given) ?
Output: f

Task: Give the logged outcome of this assay for the following molecule: CCCCCCCCCC[N+](C)(C)[O-]
Output: f

Task: Record lookup: outcome of this test for N[C@@H](Cc1c[nH]c2ccccc12)C(=O)O ?
Output: f

Task: How did this test come out for O=C1c2c(O)cccc2Cc2cccc(O)c21 ?
Output: f

Task: Please indicate how the test categorized C=CCCCCCCCCCCCC .
Output: f

Task: Could you kindly confirm the outcome this assay logged for O=C1OC(c2ccc(O)cc2)(c2ccc(O)cc2)c2ccccc21 ?
Output: f

Task: Could you kindly confirm the outcome this assay logged for CSc1ccc(Oc2ccc(S(N)(=O)=O)cc2CN(C)C)cc1C ?
Output: f

Task: Hello, I am checking results. What call was entered for CC(C)(C)c1ccccc1 ?
Output: f

Task: Recorded call for CCCCCCCC(=O)OC ?
Output: f

Task: Write down the call the test reported for this molecule. Item: CC(=O)S[C@H](C(=O)N[C@H]1Cc2ccccc2[C@H]2CCC[C@@H](C(=O)O)N2C1=O)C(C)C
Output: f

Task: Test call, this molecule: O=C(N[C@@H](c1ccccc1)[C@@H]1CCCCN1)c1cccc(C(F)(F)F)c1Cl
Output: f

Task: Please share the test call associated with O=NO .
Output: f

Task: Given CCCC[C@H]1CN(CC2CCOCC2)C(=O)OC12CCN(C1(C)CCN(C(=O)c3c(C)ncnc3C)CC1)CC2 , state the outcome it received in this test.
Output: f

Task: Which outcome was assigned to COC(=O)[C@H]1[C@H]2C[C@@H]3c4[nH]c5cc(OC)ccc5c4CCN3C[C@H]2C[C@@H](OC(=O)c2cc(OC)c(OC)c(OC)c2)[C@@H]1OC in this test?
Output: t
